Molecular target: T1, T47D (native PRLR expressing cell line) (Homo sapiens, UniProt P16471)
T1 construct: a native PRLR expressing cell line (T47D); endogenous in cells; host or cells: T47D
T1 sequence (P16471 25-622): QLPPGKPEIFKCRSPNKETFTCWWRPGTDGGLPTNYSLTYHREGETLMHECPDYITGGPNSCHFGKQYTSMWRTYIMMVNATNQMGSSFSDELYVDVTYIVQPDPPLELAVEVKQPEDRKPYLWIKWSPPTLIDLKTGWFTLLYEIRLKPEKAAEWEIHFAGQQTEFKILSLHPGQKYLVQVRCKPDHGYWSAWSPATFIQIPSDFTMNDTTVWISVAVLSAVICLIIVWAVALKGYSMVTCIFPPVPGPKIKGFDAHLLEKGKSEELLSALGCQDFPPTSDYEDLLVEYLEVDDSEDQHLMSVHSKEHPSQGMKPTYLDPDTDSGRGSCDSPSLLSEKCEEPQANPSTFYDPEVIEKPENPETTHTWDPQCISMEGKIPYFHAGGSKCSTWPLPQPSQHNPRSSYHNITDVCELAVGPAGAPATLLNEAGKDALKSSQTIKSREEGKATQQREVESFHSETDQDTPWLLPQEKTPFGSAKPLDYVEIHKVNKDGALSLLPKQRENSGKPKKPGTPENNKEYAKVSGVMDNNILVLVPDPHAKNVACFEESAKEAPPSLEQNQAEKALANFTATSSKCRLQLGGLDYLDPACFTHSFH
Assay: FACS cell surface binding
measured.quantity: FACS Cell Binding (Fold Above Background)
Give the value, in units of Fold Above Background, as a plain number.

Task: Entry H1H6795P: anti-PRLR antibody, human IgG1 Fc; HCVR/LCVR SEQ ID NOs 162/170 (antibody, V domains shown, human IgG1 Fc) VH: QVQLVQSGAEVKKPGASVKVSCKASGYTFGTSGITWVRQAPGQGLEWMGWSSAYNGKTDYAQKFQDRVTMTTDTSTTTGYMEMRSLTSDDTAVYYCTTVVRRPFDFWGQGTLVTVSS VL: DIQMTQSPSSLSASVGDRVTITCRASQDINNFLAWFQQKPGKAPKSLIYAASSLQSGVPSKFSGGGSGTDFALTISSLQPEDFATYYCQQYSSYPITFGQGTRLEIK has what FACS Cell Binding (Fold Above Background)?
Result: 34
